Reference source for all entries: PubChem BioAssay (NCI)

- assayComment: NCI Yeast Anticancer Drug Screen. Data for the cln2 rad14 strain (AID 165);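 note: 0% = growth equal to vehicle treated cultures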
- setupConditions: S. cerevisiae cln2 rad14 strain, at 5.0 µM (retest, dose inferred, filed as 0.5), hits give high values
Compounds without any hit were thinned out: in the full panel of roughly 79,000, 15% have a hit.
Criterion: growth inhibition meeting or surpassing 10%. Met: condition met. Not met: condition not met.

Ask | Hello, I need to know if `OCC(CO)C1c2cccc3ccc4cccc1c4c23` has measured growth inhibition not below 10%. Thanks!
Reply | condition not met

Ask | Hello, I need to know if `Nc1ccc2ccccc2c1Cc1c(O)ccc2ccccc12` has measured growth inhibition not below 10%. Thanks!
Reply | condition not met

Ask | Hello, I need to know if `O=[N+]([O-])c1ccc2c(c1)OCO2` has measured growth inhibition not below 10%. Thanks!
Reply | condition not met

Ask | Hello, I need to know if CCCCCCCCCCCCCCCCCC(=O)OCC(COC(=O)CCCN)OC(=O)CCCN (stereo unspecified) has measured growth inhibition not below 10%. Thanks!
Reply | condition not met

Ask | Hello, I need to know if CCCCC(CC(=O)O)c1ccc(Cl)cc1 (stereo unspecified) has measured growth inhibition not below 10%. Thanks!
Reply | condition not met

* * *

- assayComment: NCI Yeast Anticancer Drug Screen. Data for the bub3 strain (AID 167)
- setupConditions: S. cerevisiae bub3 mutant strain, at 50.0 µM (retest, dose inferred, filed as 5.0), hits give high values
- Procedure: Growth inhibition of yeast strains with defined genetic alterations is measured as a screen for potential anti-cancer activity. Selected strains with alterations in DNA damage repair or cell cycle control were exposed to compounds and growth inhibition was measured relative to vehicle treated controls. The strain used in this assay is bub3
Compounds without any hit were thinned out: in the full panel of roughly 79,000, 15% have a hit. Active and inactive are the calls of the source. Rule as the data show it: active = growth inhibition above about 70%; inactive = the rest.
experimentalEndpoint: growth inhibition

- molecule: "O=C(CC(c1ccccc1Cl)C(C(=O)O)c1ccccc1)c1ccccc1 (stereo not given)"
  growth inhibition: "67% (inactive)"
- molecule: "O=C(C(Oc1ccc(Cl)cc1)Oc1ccc(Cl)cc1)N(O)c1ccccc1OCc1ccccc1"
  growth inhibition: "57% (inactive)"
- molecule: "CCOC(=O)c1c(I)[nH]c(I)c1C"
  growth inhibition: "3% (inactive)"
- molecule: "O=C(CNC(=O)C(CSCc1ccccc1)NC(=O)OCc1ccccc1)Oc1c(Cl)c(Cl)c(Cl)c(Cl)c1Cl (stereo not given)"
  growth inhibition: "13% (inactive)"
- molecule: "Cc1ccc(NS(=O)(=O)c2ccc(C)cc2)cc1"
  growth inhibition: "90% (active)"
- molecule: "CCCCCCn1c(SCC)c2ccccc2c1-c1nc(F)nc(F)n1"
  growth inhibition: "36% (inactive)"
- molecule: "Cc1[nH]c2ccccc2c1/C=C1\\C(=O)C2CCC1C2 (stereo not given)"
  growth inhibition: "80% (active)"
- molecule: "Cc1ccc(S(=O)(=O)Nc2ccc3c(c2)Cc2cc([N+](=O)[O-])ccc2-3)cc1"
  growth inhibition: "63% (inactive)"
- molecule: "OCCOCCO[P+]1(OCCOCCO)n2c3ccc2C(c2ccccc2)=C2C=CC(=N2)C(c2ccccc2)=c2ccc(n21)=C(c1ccccc1)C1=NC(=C3c2ccccc2)C=C1"
  growth inhibition: "99% (active)"

The molecule listed as `CC1=NC2=NC(CCCC(=O)OCc3ccc(Cl)c(Cl)c3)=NC3=CC=CC(=N1)N32` has a reported growth inhibition of 38% (inactive)

* * *

- assayComment: NCI Yeast Anticancer Drug Screen. Data for the bub3 strain (AID 167)
- setupConditions: S. cerevisiae bub3 mutant strain, at 50.0 µM
This is part of a sample that, as a whole, favours compounds with a hit. Of some 79,000 tested, about 15% had one in any assay. Activity calls are given as the source filed them. Cut-off read from the data, not from the text of the source: active = growth inhibition above about 70%; inactive = the rest.
Allowed answers: active, inactive

Below are worked cases with known answers.
- molecule: "COc1cccc2c1C(=O)c1c(O)c(COC3CC(N)C(O)C(C)O3)cc(O)c1C2=O (stereo unspecified)"
  qualitativeLabel: "active"
- molecule: "CC(=O)c1ccc(Br)cc1NC1=CC(=O)c2ncccc2C1=O"
  qualitativeLabel: "active"
- molecule: "NNCc1cc(Cl)c2cccnc2c1O"
  qualitativeLabel: "active"
- molecule: "OC(Cc1ccccc1)(c1ccccc1)C(O)(Cc1ccccc1)c1ccccc1 (stereo unspecified)"
  qualitativeLabel: "active"
- molecule: "CC#Cc1cc2c(cc1O)CC[C@@H]1[C@@H]2CC[C@]2(C)[C@@H](O)CC[C@@H]12"
  qualitativeLabel: "active"

Ask | Called result for `C/C=C1\SC(=S)NC1=O`
Reply | active

Ask | Called result for `c1ccc(C[n+]2cccc(-c3cc4ccccc4[nH]3)c2)cc1`
Reply | inactive

Ask | Called result for `O=C1OC2(Cc3ccccc31)c1ccccc1-c1ccccc12`
Reply | inactive

Ask | Called result for `Clc1ccc2[nH]c(-c3ccccc3)c(-c3ccccn3)c2c1`
Reply | active

Ask | Called result for `CCc1nc(N)nc(N)c1-c1ccc(NCCN)c([N+](=O)[O-])c1`
Reply | active

Ask | Called result for C=C1C(=O)OC2CC1C(O)C/C(C)=C/CC/C(C)=C/C(O)CC2C (stereo unspecified)
Reply | inactive

* * *

- assayComment: NCI Yeast Anticancer Drug Screen. Data for the mec2-1 strain (AID 157)
- setupConditions: S. cerevisiae mec2-1 strain, at 5.0 µM (retest, dose inferred, filed as 0.5)
- Experimental: Growth inhibition of yeast strains with defined genetic alterations is measured as a screen for potential anti-cancer activity. Selected strains with alterations in DNA damage repair or cell cycle control were exposed to compounds and growth inhibition was measured relative to vehicle treated controls. The strain used in this assay is mec2-1
Compounds without any hit were thinned out: in the full panel of roughly 79,000, 15% have a hit. Active and inactive are the calls of the source. Rule as the data show it: active = growth inhibition above about 70%; inactive = the rest.
Allowed answers: 1 = active, -1 = inactive

Below are worked cases with known answers.
- molecule: "CCCN=Cc1cnc(C#N)c(N)n1"
  qualitativeLabel: -1
- molecule: "O/N=C/c1cc(Cl)cc(Cl)c1O"
  qualitativeLabel: 1
- molecule: "CC1=C(C(=O)Nc2cccc(Cl)c2)C(c2ccccc2O)C(C(=O)Nc2cccc(Cl)c2)=C(C)N1"
  qualitativeLabel: -1
- molecule: "CC(=O)c1c(C)n(C)c2c1nnc1ccccc12"
  qualitativeLabel: -1
- molecule: "O=C(Nc1ccc(S(=O)(=O)NC2CCCCC2)cc1)OC1CCCCC1"
  qualitativeLabel: -1
- molecule: "O=C(Oc1cccc2cccnc12)c1ccccc1"
  qualitativeLabel: -1
- molecule: "CCN(CC)Cc1cc(N=Nc2c(O)ccc3c(N=Nc4ccc(O)c(CN(CC)CC)c4)c(O)ccc23)ccc1O"
  qualitativeLabel: -1
- molecule: "COc1ccc(C(=O)C(CCC(=O)/C=C/c2ccccc2)S(C)(=O)=O)cc1 (configuration not stated)"
  qualitativeLabel: -1

Ask | Called result for `O=[N+]([O-])c1cc(I)c(O)c(/C=N/NS(=O)(=O)c2ccc(Cl)cc2)c1`
Reply | -1

Ask | Called result for O=C(O)C(Br)C(Br)c1ccccc1[N+](=O)[O-] (configuration not stated)
Reply | -1

Ask | Called result for `CCOC(=O)c1ccc([N+](=O)[O-])o1`
Reply | -1

Ask | Called result for `ClC1=C(Cl)C2c3ccccc3C1c1ccccc12`
Reply | -1

* * *

Each entry below carries its recorded growth inhibition.
- assayComment: NCI Yeast Anticancer Drug Screen. Data for the rad50 strain (AID 155);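 note: 0% = growth of vehicle-only cultures of the same strain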
- setupConditions: S. cerevisiae rad50 strain growth inhibition; at 50.0 µM (retest, dose inferred, filed as 5.0); hits give high values
- Protocol: Growth inhibition of yeast strains with defined genetic alterations is measured as a screen for potential anti-cancer activity. Selected strains with alterations in DNA damage repair or cell cycle control were exposed to compounds and growth inhibition was measured relative to vehicle treated controls. The strain used in this assay is rad50
The panel holds about 79,000 compounds, 15% with a hit somewhere; the sample as a whole holds those more often.
Just the number in %, nothing appended.

- molecule: "Cc1cc(SC#N)cc(C)c1O"
  reported: 65
- molecule: "CCOC(=O)CC(NC(=O)c1[nH]cnc1/N=N/N(C)C)C(=O)OCC (configuration not stated)"
  reported: 95
- molecule: "NCCCSc1ccc(Br)cc1"
  reported: 13
- molecule: "N#CC(C#N)C(C#N)c1ccc(Cl)c(Cl)c1 (configuration not stated)"
  reported: 99
- molecule: "N/N=C(\\N)c1ccc2ccc3cccnc3c2n1"
  reported: 73

The molecule listed as CC(C)CC(NC(=O)COc1c(Cl)cc(Cl)c(Cl)c1Cl)C(=O)O (configuration not stated) has a reported growth inhibition of 8

* * *

- assayComment: NCI Yeast Anticancer Drug Screen. Data for the mec2-1 strain (AID 157)
- setupConditions: S. cerevisiae mec2-1 strain, at 50.0 µM, hits give high values
This is part of a sample that, as a whole, favours compounds with a hit. Of some 79,000 tested, about 15% had one in any assay.
experimentalEndpoint: growth inhibition (%)
Just the number in %, nothing appended.

- compound: "C=C1CC(c2ccc(OCCCN3C(=O)c4ccccc4C3=O)c(OC)c2)OC1=O (stereo not given)"
  growth inhibition, %: 88.2
- compound: "O=[N+]([O-])c1ccc2c(c1)OCO2"
  growth inhibition, %: 8
- compound: "COc1cc2c(ccc3cc4cccc[n+]4cc32)c(Br)c1OC"
  growth inhibition, %: 42.5
- compound: "COc1cc(N=Nc2cccc(S(N)(=O)=O)c2)c2ccccc2c1N"
  growth inhibition, %: 97.7

Now look at this one.
The compound listed as Cc1ccc(C)c(NC(=O)CC2SC(=Nc3ccccc3Cl)NC2=O)c1 (stereo not given) has a reported growth inhibition of 58.9
